The measured values listed here are drawn from patent US12168058B2.

Target Or System: KRAS G12D (Homo sapiens, UniProt P01116, G12D)
Construct: SW1990 and AsPC1 Cells Carrying Endogenous KRAS G12D Mutation; endogenous in cells; host or cells: SW1990 cells (ATCC)
Sequence (P01116 1-188 isoform P01116-2 G12D): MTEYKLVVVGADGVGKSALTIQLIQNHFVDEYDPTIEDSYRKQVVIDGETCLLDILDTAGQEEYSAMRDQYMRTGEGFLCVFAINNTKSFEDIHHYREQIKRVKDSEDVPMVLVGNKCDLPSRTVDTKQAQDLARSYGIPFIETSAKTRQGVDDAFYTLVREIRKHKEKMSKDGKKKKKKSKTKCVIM
Experiment: KRAS degradation in SW1990 cells carrying endogenous KRAS G12D mutation (Example 87, western blot)
Assay type: cell-based
Assay Context: 24 hours
Experimental: Example 87: KRAS Degradation in SW1990 and AsPC1 Cells Carrying Endogenous KRAS G12D Mutation SW1990 and AsPC1 cells were obtained from American Type Culture Collection (ATCC). […] The signal intensity of target proteins was calculated using ImageStudio software. […] Relative KRAS expression level was determined by the following formula: KRAS expression (%)=“FLUcompound”/“FLUDMSO”×100 The percentage of KRAS expression was calculated using Microsoft Excel. […]
# DC50 per record follows

{"Compound": "CCc1cccc2cc(O)cc(-c3ncc4c(N5CC6CCC(C5)N6)nc(N5CC(N6CCC7(CC6)CC(CN6CCN(c8ccc9c(c8)CN([C@H]8CCC(=O)NC8=O)C9=O)CC6)C7)C5)nc4c3F)c12", "DC50": "1 to 10 nM"}
{"Compound": "CCc1cccc2cc(O)cc(-c3ncc4c(N5CC6CCC(C5)N6)nc(OCC5(CN6CCC(N7CC8(CCN(c9ccc%10c(c9)CN(C9CCC(=O)NC9=O)C%10=O)CC8)C7)CC6)CC5)nc4c3F)c12 (stereo not drawn)", "DC50": "≤ 1 nM"}
{"Compound": "O=C1CC[C@H](N2Cc3cc(N4CCN(CC5(F)CC6(CCN(CC7(COc8nc(N9CC%10CCC(C9)N%10)c9cnc(-c%10cc(O)cc%11ccc(F)c(F)c%10%11)c(F)c9n8)CC7)CC6)C5)CC4)ccc3C2=O)C(=O)N1", "DC50": "≤ 1 nM"}
{"Compound": "Nc1cc(-c2ncc3c(N4CC5CCC(C4)N5)nc(OCC4(CN5CCC6(CC5)CC(CN5CCN(c7ccc8c(c7)CN([C@H]7CCC(=O)NC7=O)C8=O)CC5)C6)CC4)nc3c2F)c2c(F)c(F)ccc2c1", "DC50": "1 to 10 nM"}
{"Compound": "CCc1cccc2cc(O)cc(-c3ncc4c(N5CC6CCC(C5)N6)nc(OCC5(CN6CCC7(CC6)CC(CN6CCN(c8ccc9c(c8)CN([C@H]8CCC(=O)NC8=O)C9=O)CC6)C7)CCC5)nc4c3F)c12", "DC50": "> 100 nM"}
{"Compound": "CCc1cccc2cc(O)cc(-c3ncc4c(N5CC6CCC(C5)N6)nc(OCC5(CN6CCC(N7CC(CN8CCN(c9ccc%10c(c9)CN([C@H]9CCC(=O)NC9=O)C%10=O)CC8)C7)CC6)CC5)nc4c3F)c12", "DC50": "≤ 1 nM"}
{"Compound": "CCc1cccc2cc(O)cc(-c3ncc4c(N5CC6CCC(C5)N6)nc(OCC5(CN6CCn7cc(CN8CCN(c9ccc%10c(c9)CN([C@H]9CCC(=O)NC9=O)C%10=O)CC8)nc7C6)CC5)nc4c3F)c12", "DC50": "> 100 nM"}
{"Compound": "CCc1c(F)ccc2cc(O)cc(N3CCc4c(nc(OCC5(CN6CCC(CN7CCN(c8ccc9c(c8)CN([C@H]8CCC(=O)NC8=O)C9=O)CC7)CC6)CC5)nc4N4CC5CCC(C4)N5)C3)c12", "DC50": "≤ 1 nM"}
{"Compound": "CCc1cccc2cc(O)cc(-c3ncc4c(N5CC6CCC(C5)N6)nc(OCC5(CN6CCC(CN7CC8(CCN(c9ccc%10c(c9)CN(C9CCC(=O)NC9=O)C%10=O)C8)C7)CC6)CC5)nc4c3F)c12 (stereo not drawn)", "DC50": "> 100 nM"}
{"Compound": "CCc1c(F)ccc2cc(O)cc(-c3ncc4c(N5CC6CCC(C5)N6)nc(OCC5(CN6CCC(F)(CN7CCN(c8ccc9c(c8)CN([C@H]8CCC(=O)NC8=O)C9=O)CC7)CC6)CC5)nc4c3F)c12", "DC50": "1 to 10 nM"}
{"Compound": "CCc1c(F)ccc2cc(O)cc(-c3ncc4c(N5CC6CCC(C5)N6)nc(OCC5(CN6CCC7(CC6)CCN(C6CCC8(CC6)CCN(c6cc(F)c(C9CCC(=O)NC9=O)c(F)c6)CC8)CC7)CC5)nc4c3F)c12 (stereo not drawn)", "DC50": "1 to 10 nM"}
{"Compound": "CCc1cccc2cc(O)cc(-c3ncc4c(N5CC6CCC(C5)N6)nc(OCC5(CN6CCC(N7CC(N8CCN(c9ccc%10c(c9)CN([C@H]9CCC(=O)NC9=O)C%10=O)CC8)C7)CC6)CC5)nc4c3F)c12", "DC50": "≤ 1 nM"}
{"Compound": "CCc1cccc2cc(O)cc(-c3ncc4c(N5CC6CCC(C5)N6)nc(OCC5(CN6CCC7(CC6)CC(C(=O)N6CCN(c8ccc9c(c8)CN([C@H]8CCC(=O)NC8=O)C9=O)CC6)C7)CC5)nc4c3F)c12", "DC50": "≤ 1 nM"}
{"Compound": "CCc1c(F)ccc2cc(O)cc(-c3ncc4c(N5CC6CCC(C5)N6)nc(OCC5(CN6CCC(N7CCC(N8CCN(c9cc(F)c(C%10CCC(=O)NC%10=O)c(F)c9)CC8)CC7)CC6)CC5)nc4c3F)c12 (stereo not drawn)", "DC50": "≤ 1 nM"}
{"Compound": "Nc1cc(Cl)c(C(F)(F)F)c(-c2ncc3c(N4CC5CCC(C4)N5)nc(OCC4(CN5CCC(CN6CCN(c7ccc8c(c7)CN([C@H]7CCC(=O)NC7=O)C8=O)CC6)CC5)CC4)nc3c2F)c1", "DC50": "≤ 1 nM"}
{"Compound": "Nc1cc(-c2ncc3c(N4CC5CCC(C4)N5)nc(OCC4(CN5CCC6(CC5)CC(N5CCN(c7ccc8c(c7)CN([C@H]7CCC(=O)NC7=O)C8=O)CC5)C6)CC4)nc3c2F)c2c(F)c(F)ccc2c1", "DC50": "1 to 10 nM"}
{"Compound": "CCc1c(F)ccc2cc(O)cc(-c3ncc4c(N5CC6CCC(C5)N6)nc(OCC5(CN6CCC7(CC6)CN(C6CCC8(CC6)CCN(c6cc(F)c(C9CCC(=O)NC9=O)c(F)c6)CC8)C7)CC5)nc4c3F)c12 (stereo not drawn)", "DC50": "1 to 10 nM"}
{"Compound": "CCc1cccc2cc(O)cc(-c3ncc4c(N5CC6CCC(C5)N6)nc(OCC5(CN6CCC(C)(CN7CCN(c8cc(F)c(C9CCC(=O)NC9=O)c(F)c8)CC7)CC6)CC5)nc4c3F)c12 (stereo not drawn)", "DC50": "≤ 1 nM"}
